Where do the numbers come from? From PubChem BioAssay (NCI).

Tested on: HCT-116 colon
assay-notes: NCI tumour cell line growth inhibition, 48 h
Could you please report measured TGI for the items listed next?

# TGI of COc1ccc2nc(NC(=O)COc3cc(/C=C\c4cc(OC)c(OC)c(OC)c4)ccc3OC)sc2c1 = > 100 µM

// recorded TGI for C[N+](C)(C)CC1CCc2ccccc2C1=O (stereo unspecified) : 18.9 µM

Record COc1ccccc1C1(c2c(OC(C)C)c(=O)c2=O)SCCCS1 , field TGI: > 100 µM

The recorded TGI for Cc1ccc(NC(=O)CSc2nnc(Cc3ccccc3)o2)c(C)c1 is > 100 µM

Per the records, this compound ( COc1ccc(C(=O)/C=C/c2ccc(OCc3ccc(Cl)cc3)cc2)cc1OC ) has TGI equal to > 1000 µM

Please fill in: TGI reported for CC12CC[C@@H]3c4cc5c(cc4CC[C@H]3[C@@H]1CCC2O)oc1cc(F)ccc15 (stereo partly specified) = 30.6 µM

Form field TGI, entry Cc1noc(NS(=O)(=O)c2ccc(NC(=O)c3ccc4[nH]c5ccccc5c(=O)c4c3)cc2)c1C : > 100 µM

Lab note: CCCCCC/C=C\CCCCCCCCCc1cc(O)cc(OC)c1O gave TGI of 1.25 µM

Looking up COC(=O)[C@H](Cc1c[nH]c2ccccc12)NC(=O)OCC1OC(n2cc(C)c(=O)[nH]c2=O)CC1N=[N+]=[N-] (stereo partly specified) , I found its TGI recorded as > 100 µM

Form field TGI, entry Cc1ccc(C(=O)CCl)o1 : 6.62 µM

TGI measured on CCOC(=O)c1cnc2oc(-c3ccc(OC)cc3)nn2c1=O = > 100 µM

----------
Test system: LOX IMVI melanoma
assay-notes: NCI tumour cell line growth inhibition, 48 h
measured-property: TGI (µM)
The response must be a number in µM with no trailing unit.

Lab note: COc1cc2c3c(n(CCCNCCCNCCCn4c5c(c6cc(OC)c(OC)cc6c4=O)C(=O)c4ccccc4-5)c(=O)c2cc1OC)-c1ccccc1C3=O gave TGI of 13.9

What the record says about CCOC(OC1=CCCC1)C(C)[Se]c1ccccc1 (stereo not given) : TGI is 28.9

// Cc1noc(NS(=O)(=O)c2ccc(NC(=O)c3ccc4[nH]c5ccccc5c(=O)c4c3)cc2)c1C : TGI value = 56.5

So, C=C1CC[C@@H]2C(C)(C)C(O)CCC2(C)C1COc1ccc2ccc(=O)oc2c1 (stereo not given in full) ? Its TGI was 32

TGI reading for COC(O)C(=O)c1c2c(cc3c1CCC3)CCCC2 (stereo not given) : 4.95

----------
Tested on: NCI-H23 lung
assay-notes: NCI tumour cell line growth inhibition, 48 h
measured-property: TGI

Notebook: C=CCCCC(=O)CCC(=O)OCC1O[C@@H](O[C@@H]2C(O)[C@@H](OC(C)=O)C(C)O[C@H]2O[C@H](CC=C)CCCCC)C(O)[C@@H](OC(=O)/C(C)=C/C)[C@@H]1OC(=O)/C=C/c1ccccc1 (some centres undefined) , TGI read as > 50 µM

The reported TGI of the molecule COc1cc2c3c(n(CCCN(C)C)c(=O)c2cc1OC)-c1cc2c(cc1C3=O)OCO2 was 1.59 µM

Recorded TGI (molecule O=C1C(C(Nc2ccccc2)c2ccccc2)=C([O-])c2ccccc21.O=C1C(C(Nc2ccccc2)c2ccccc2)=C([O-])c2ccccc21.[Co+2] (centres undefined) ): > 100 µM

// TGI lookup, molecule = COc1ccc2nc(NC(=O)COc3cc(/C=C\c4cc(OC)c(OC)c(OC)c4)ccc3OC)sc2c1 , result: > 100 µM

For reference, reported TGI for O=C1NC(=O)C2C1c1[nH]c3ccccc3c1C1CCCC12 (centres undefined) stands at > 100 µM

The reported value for C[C@@H]1CCC2[C@@H](C)[C@@H](OC3CCC(O)CC3)OC3O[C@@]4(C)CCC1[C@]32OO4 (some centres undefined) in terms of TGI is > 100 µM

// field: TGI; key: c1ccc2c(c1)Sc1ccccc1N2CC1CN2CCC1CC2 (centres undefined) ; value = 26.1 µM

TGI reported for this molecule Nc1c(C(=O)Nc2ccccc2)sc2nc3c(cc12)C(O)CCC3 (centres undefined) : > 100 µM

Entry COC(=O)[C@@H](NC1(c2ccccc2)c2ccccc2-c2ccccc21)[C@H](OC(=O)[C@H]1CCCN1S(=O)(=O)c1ccccc1)C(=O)OC , TGI reported as > 100 µM

According to the records, this molecule CCOC(=O)/C=C\[C@H]1OC(C)(C)O[C@H]1[C@H](O)[C@H]1COC(C)(C)O1 displays TGI of 50.1 µM

The reported TGI of the molecule CCOC(=O)C(C)(C)Oc1ccc(Cl)cc1 was > 1000 µM

Entry under test: CC(Cc1ccc(O)cc1)NCC(O)c1ccc(O)c(O)c1 (centres undefined) . Its TGI was > 100 µM

For CCC(=O)Oc1cc(/C=C/C(=O)O[C@H]2C[C@H]3CN4CCc5c([nH]c6cc(OC)ccc56)[C@@H]4C[C@@H]3[C@@H](C(=O)OC)[C@@H]2OC)ccc1OC the molecule record lists TGI as > 100 µM

Noted for O=C1C=CC2(C=C1)CCC(=O)O2 : its TGI reads 43.9 µM

Field TGI (entry COc1ccc(C(=O)C2C(C#N)C(C#N)C3C=Cc4ccccc4N32)cc1 (centres undefined) ) reads > 100 µM

Record COc1ccccc1C1(c2c(OC(C)C)c(=O)c2=O)SCCCS1 , field TGI: > 100 µM

Entry O=C(Cc1nc2cccnc2nc1/C=C(\O)c1ccccc1)c1ccccc1 , TGI reported as > 100 µM

TGI recorded for this molecule, O=c1[nH]cnc2c1cnn2Cc1cn(COCC(O)CO)nn1 (centres undefined) , is > 100 µM

The value of TGI measured for the molecule N#CC1Sc2ccccc2-n2cccc21 (centres undefined) turned out to be > 100 µM
